Origin of the recorded values: patent US5853731A

- Tested on: human platelet-rich plasma
- Method notes: Aggregation test of human platelet-rich plasma
- Type: cell-based
- Test settings: Homo sapiens, Platelet, human platelet-rich plasma; inducer collagen; read-out: IC50, platelet aggregation
Recorded endpoint: IC50 (µM)
Numbers only, in µM.

### Prompt Returns the measured IC50 for the input compound. Input: COc1cc(CC(C)C(C)C(=O)c2ccc(O)c(OC)c2)ccc1O (stereo not shown)
### Response 5.6

====

- System: human platelet-rich plasma
- Method notes: Aggregation test of human platelet-rich plasma
- Format: cell-based
- Test settings: Homo sapiens, Platelet, human platelet-rich plasma; inducer U-46619 1 μM; read-out: IC50, platelet aggregation
Recorded endpoint: IC50 (nM)
One number for each entry, in nM.

### Prompt Returns the measured IC50 for the input molecule. Input: COc1cc(CC(C)C(C)C(=O)c2ccc(O)c(OC)c2)ccc1O (stereo not shown)
### Response 3000
